System: LNCaP
assay_details: Cytotoxicity against human LNCAP cells
Assay type: functional
condition_notes: read-out: ED50 (the source's name)
measured_quantity: EC50 (µg/mL)
Please state the figure in µg/mL; there is no need to write the unit.

Look at this compound and give its reported EC50. CC1(C)CC[C@]2(C)[C@@H](O)C[C@]3(C)C(=CC[C@@H]4[C@@]5(C)CC[C@H](O[C@@H]6OC[C@@H](O)[C@H](O[C@@H]7OC[C@H](O)[C@H](O)[C@H]7O)[C@H]6O[C@@H]6O[C@H](CO)[C@@H](O)[C@H](O)[C@H]6O)C(C)(C)[C@@H]5CC[C@]43C)[C@@H]2C1 [NEPHELIOSIDE V] 11.7
